- TEST: Rat dose-range PK study (dose escalation pharmacokinetics)
- Assay type: in vivo
- EXPERIMENTAL CONDITIONS: male, SD, plasma, PO, dose 3 mg, read-out: AUC24 hr
Binary call on AUC(0-t): true from 4000 ng·h/mL upward, false beneath that.

> print(dat)
                         structure.notation  assigned.label
1  COc1c(Nc2ccc(S(C)(=O)=O)nc2C)ncnc1OC1CCN(C(=O)OC(C)C)CC1            true

With those in mind, consider the next compound.
QUERY: Decide: AUC(0-t) of `Cc1c(Nc2ccc(S(C)(=O)=O)cc2F)ncnc1OC1CCN(c2nc(C(C)C)no2)CC1` >= 4000 ng·h/mL?
RESULT: false

###

- TEST: Rat dose-range PK study (dose escalation pharmacokinetics)
- Type: in vivo
- EXPERIMENTAL CONDITIONS: male, SD, plasma, PO, dose 100 mg, read-out: AUC24 hr
MEASURE NAME: AUC(0-t)

QUERY: Fill blank: measured AUC(0-t) of the compound CC(C)OC(=O)N1CCC(Oc2ncnc3c2cnn3-c2ccc(S(C)(=O)=O)cc2F)CC1 [Compound A] is ____.
RESULT: 133 µg·h/mL

###

- TEST: Rat dose-range PK study (dose escalation pharmacokinetics)
- Assay type: in vivo
- EXPERIMENTAL CONDITIONS: male, SD, plasma, PO, dose 30 mg, read-out: AUC24 hr
MEASURE NAME: AUC(0-t) (ng·h/mL)
Numbers only, in ng·h/mL.

> print(dat)
                                   molecule  measure.name  observed
1  Cc1nc(S(C)(=O)=O)ccc1Nc1ncnc(OC2CCN(C(=O)OC(C)C)CC2)c1C [Compound E]      AUC(0-t)     55900
2  COc1c(Nc2ccc(S(C)(=O)=O)nc2C)ncnc1OC1CCN(c2nc(C(C)C)no2)CC1 [Compound G]      AUC(0-t)      6470
3  Cc1c(Nc2ccc(S(C)(=O)=O)cc2F)ncnc1OC1CCN(c2nc(C(C)C)no2)CC1 [Compound B]      AUC(0-t)      5990

Working through the 4 molecules below one at a time, give AUC(0-t) for each.
1. COc1c(Nc2ccc(S(C)(=O)=O)nc2C)ncnc1OC1CCN(C(=O)OC(C)C)CC1 [Compound C]
2. COc1c(Nc2cnc(S(C)(=O)=O)cc2C)ncnc1OC1CCN(C(=O)OC(C)C)CC1 [Compound D]
3. CC(C)OC(=O)N1CCC(Oc2ncnc3c2cnn3-c2ccc(S(C)(=O)=O)cc2F)CC1 [Compound A]
4. COc1c(Nc2ccc(-n3cncn3)nc2C)ncnc1OC1CCN(C(=O)OC(C)C)CC1 [Compound of Formula (I)]

RESULT:
1. 65900
2. 29400
3. 9930
4. 79800

###

Field: AUC(0-t). Provide a value for each of the compounds that follow.
- TEST: Rat dose-range PK study (dose escalation pharmacokinetics)
- Type: in vivo
- EXPERIMENTAL CONDITIONS: male, SD, plasma, PO, dose 300 mg, read-out: AUC24 hr
Please format your answer as a value with the unit trailing.

> print(dat)
                         structure.notation        observed
1  COc1c(Nc2ccc(S(C)(=O)=O)nc2C)ncnc1OC1CCN(c2nc(C(C)C)no2)CC1   33800 ng·h/mL
2  COc1c(Nc2ccc(S(C)(=O)=O)nc2C)ncnc1OC1CCN(C(=O)OC(C)C)CC1  419000 ng·h/mL
3  COc1c(Nc2ccc(-n3cncn3)nc2C)ncnc1OC1CCN(C(=O)OC(C)C)CC1  286000 ng·h/mL
4  CC(C)OC(=O)N1CCC(Oc2ncnc3c2cnn3-c2ccc(S(C)(=O)=O)cc2F)CC1   97000 ng·h/mL

Working through the 3 compounds below one at a time, give AUC(0-t) for each.
1. Cc1c(Nc2ccc(S(C)(=O)=O)cc2F)ncnc1OC1CCN(c2nc(C(C)C)no2)CC1
2. Cc1nc(S(C)(=O)=O)ccc1Nc1ncnc(OC2CCN(C(=O)OC(C)C)CC2)c1C
3. COc1c(Nc2cnc(S(C)(=O)=O)cc2C)ncnc1OC1CCN(C(=O)OC(C)C)CC1

RESULT:
1: 11000 ng·h/mL; 2: 515000 ng·h/mL; 3: 54700 ng·h/mL
